# system_under_test: T1, PICK1 PDZ-GST fusion protein (Bos taurus (Bovine), UniProt Q2T9M1 17-105)
# T1 construct: Order of GST and PDZ part and limits not seen in the excerpts
# assay_method_text: A/G assays
Ends that are not written are not given here. * marks the point of attachment. Biotin = O=C1N[C@H]2[C@H](CS[C@H]2CCCCC(=O)*)N1
measured_quantity: binding result

Biotin-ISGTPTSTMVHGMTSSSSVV [Clasp-2 C-terminal peptide AA2L, biotinylated] = no binding
Biotin-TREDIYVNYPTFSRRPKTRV [DNAM-1 C-terminal peptide AA22L, biotinylated] = no binding
Biotin-LNFPLLQGIRVHGMEALGSF (Only the last four residues are seen in the excerpts) [CD114 (G-CSFR) C-terminal peptide AA27L] = no binding
Biotin-ARKANMKGSYSLVEAQKSKV (also called CD106) [VCAM1 C-terminal peptide AA17L, biotinylated] = no binding
Biotin-QFMTADETRNLQNVDMKIGV (also called CD44 (long form)) [CD44 C-terminal peptide AA9L, biotinylated] = no binding
Biotin-DLGNMEENKKLEENNHKTEA (also called CD166 (CD6L)) [CD166 C-terminal peptide AA20L, biotinylated] = no binding
Biotin-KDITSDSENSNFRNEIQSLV (also called CD95 (Apo-1/Fas); AAI3L) [CD95 (Fas) C-terminal peptide AA13L, biotinylated] = no binding
Biotin-TTNNNPNSAVNIKKIFTDV [KV1.3 C-terminal peptide AA33L, biotinylated] = no binding
Biotin-VTSPNKHLGLVTPHKTELV [CD83 C-terminal peptide AA47L, biotinylated] = no binding
Biotin-PSWRRSSLSESENATSLTTF (also called CXCR5) [BLR-1 C-terminal peptide AA45L, biotinylated] = no binding
Biotin-PKQANGGAYQKPTKQEEFYA (also called CD138 (syndecan-1); CD138 (syndecan)) [CD138 C-terminal peptide AA18L, biotinylated] = no binding
Biotin-SFPPCGHRENVPGQSLVSFV (Marked (S), sticky; also called Spectrin beta (S); Spectrin β) [Spectrin (beta) C-terminal peptide AA32L, biotinylated] = no binding
Biotin-LERVSSTSPSTGEHELSAGF (Only the last four residues are seen in the excerpts) [CC CKR-1R C-terminal peptide AA41L] = no binding
Biotin-SPQPDSTDNDDYDDISAA [CD6 C-terminal peptide AA6L, biotinylated] = no binding
